Source listed as paper doi:10.1101/2024.08.25.609621.

target: SARS-CoV-2 NSP3 macrodomain (Mac1), P43 crystal form (Severe acute respiratory syndrome coronavirus 2, UniProt P0DTD1); type: binding; details: crystal soak concentration 20 mM, DMSO background map
Quantity: PanDDA run, DMSO background map: Modeled

>>> print(df.to_string())
                                   molecule  observed_value
0  O=C(O)C(c1ccccc1)n1sc2ccccc2c1=O (stereo not shown)            TRUE
1  O=C1CCc2cc(C(=O)N3CC(C(=O)O)CCC34CCCC4)c(F)cc2N1 (stereo not shown)            TRUE
2    CC(C)n1nnnc1SCc1c(C(=O)O)sc2cccc(F)c12            TRUE
3    CNc1ccc(NS(=O)(=O)c2cc3cccc(C)c3s2)cn1            TRUE
